- target-or-system: OTUB2 (OTUB2A) (Homo sapiens)
- Construct: full length residues 1-234, E. coli BL21(DE3)-R3, His tag removed by TEV, construct 27312 Da
- Design: Intact protein LC/MS covalent labelling, fragments in pools of five, 200 uM each, 4 °C
- experimental-setup: 24 h, 4 °C, pool of five; 200 µM; covalent
- Description: Incubations were performed at 200 μM for each compound and 2 μM of protein (10 μM for BSA) for 24 h at 4 °C with moderate shaking. […] Following incubation, we used intact protein [compound left out] chromatography/mass spectrometry (LC/MS) to identify the fragments and quantify their labeling (Figure 3A). […]
I'd appreciate it if you could supply OTUB2 values for the items below.
Give bare numbers.

Observe how each entry below is paired with its result.
# molecule, OTUB2
data = [
    ("O=C(CCl)Nc1ccccc1[N+](=O)[O-]", 0.2),
    ("O=C(O)C1Cc2ccccc2CN1C(=O)CCl (stereo not drawn)", 0),
    ("O=C(CCl)Nc1nc2c(F)c(F)c(F)cc2s1", 0),
    ("CC(NC(=O)CCl)c1ccc2c(c1)OCO2 (stereo not drawn)", 0.28),
    ("N#CC1(NC(=O)CCl)CCCCC1", 0),
]

For every item in the list below, what is its measured OTUB2?
1. CCC(C)(C)NC(=O)CCl
2. C=CC(=O)N1CC=C(C(F)(F)F)CC1
3. C=CC(=O)Nc1ccc(F)c(F)c1
4. Cc1cc(SC#N)ccc1NC(=O)CCl
5. CC1(c2ccccc2)NC(=O)N(NC(=O)CCl)C1=O (stereo not drawn)
6. Cc1ccc(NC(=O)CCl)c(Br)c1
7. O=C(CCl)NCC12CC3CC(CC(C3)C1)C2

Result:
1: 0.09; 2: 0; 3: 0; 4: 0; 5: 0; 6: 0.14; 7: 0.65

Hey, can you go through the list below and give me OTUB2 for every item?
1. Cc1cc(S(N)(=O)=O)cc(NC(=O)CCl)c1C
2. Cl.O=C(CCl)Nc1ccncc1
3. N#Cc1cccc(C(=O)NNC(=O)CCl)c1
4. Cc1ccccc1C(=O)NC1CCN(C(=O)CCl)CC1

Result:
1: 0.12; 2: 0; 3: 0.41; 4: 0

====

Please provide measured viability at 48 h, 10 µM for the entries that follow.
- assay-comment: in vitro
- Set-up: species or system HB2, HEK293
- experimental-setup: human, ccd841 cells
Answers are plain numbers, in %.

Consider the reported viability at 48 h, 10 µM for these compounds:
# compound, units-label, viability at 48 h, 10 µM
records = [
    ("O=C(CCl)N1CCCC(C(F)(F)F)C1 (centres unmarked) [PCM-0102676]", "%", 88.5),
    ("Cl.O=C(CCl)N1CCN(C2CCS(=O)(=O)C2)CC1 (centres unmarked) [PCM-0102405]", "%", 87.8),
    ("CS(=O)(=O)c1ccc(Cl)c(NC(=O)CCl)c1 [PCM-0102220]", "%", 60.9),
    ("O=C(CCl)Nc1ccc2c(c1)OC(F)(F)O2 [PCM-0102738]", "%", 72.2),
    ("C=CC(=O)N1CCCC1c1cccc2c1OCCO2 (centres unmarked) [PCM-0102489]", "%", 99.1),
    ("C=CC(=O)N1CCCC(Cc2nccn2C)C1 (centres unmarked) [PCM-0102433]", "%", 97.8),
]

Report viability at 48 h, 10 µM for every entry below.
1. Cc1ccc(N(C(=O)CCl)C2C=CS(=O)(=O)C2)cc1 (centres unmarked) [PCM-0102539]
2. CC(C)C(C)(C#N)NC(=O)CCl (centres unmarked) [PCM-0102626]
3. O=C(CCl)NC1CCC(C(F)(F)F)CC1 (centres unmarked) [PCM-0102864]
4. Cc1cc(C)c(NC(=O)CCl)c(C)c1 [PCM-0102352]
5. C=CC(=O)N1CCC(S(=O)(=O)C(C)C)CC1 [PCM-0102637]

Result:
[31.5, 82.1, 109, 78.5, 119]

====

- target-or-system: OTUB2 (OTUB2A) (Homo sapiens, UniProt Q96DC9)
- Construct: full length residues 1-234, E. coli BL21(DE3)-R3, His tag removed by TEV, construct 27312 Da
- Sequence (Q96DC9 whole entry, the tested form may be a part): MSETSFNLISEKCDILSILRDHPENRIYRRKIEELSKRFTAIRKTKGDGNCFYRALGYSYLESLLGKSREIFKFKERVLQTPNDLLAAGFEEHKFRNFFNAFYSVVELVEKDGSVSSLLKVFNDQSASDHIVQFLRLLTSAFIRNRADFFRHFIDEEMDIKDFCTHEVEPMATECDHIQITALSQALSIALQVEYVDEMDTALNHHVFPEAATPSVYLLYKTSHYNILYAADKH
- Parameters: Intact protein LC/MS covalent labelling, fragments in pools of five, 200 uM each, 4 °C
- experimental-setup: 24 h, 4 °C, pool of five; 200 µM; covalent
quantity-kind: OTUB2
Give bare numbers.

Past entries and their recorded results:
# compound, numeric-result
measured = [
    ("Cc1nc(-c2cccc(NC(=O)CCl)c2)cs1", 0.63),
    ("C=CC(=O)N1CCC(CS(C)(=O)=O)CC1", 0),
    ("COC(=O)c1cc(Cl)cc(Cl)c1NC(=O)CCl", 0),
]

Items follow; give OTUB2 for each.
1. O=C(CCl)NCC1COc2ccccc2O1 (centres unmarked)
2. Cc1cc(SC#N)cc(C)c1NC(=O)CCl

Result:
0.39
0

// provenance: paper PMC6556873
